B1: TRIM29 (parent)
chain: FAEKGELRKSIFSESRKPTVSIME

variants of: B1; experiment: protein stability index of a GFP-peptide fusion (GPS, HEK-293T) (PSI 1-6); higher = more stable; settings: c terminus: a fixed tail appended;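 note: lentivirally expressed fusions sorted by FACS into six bins by GFP to DsRed ratio, PSI derived from sequencing read proportions per bin multiplied by bin number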
Quick rule for you: protein stability index at 2 or higher means yes (1), lower means no (0).

API: above_or_equal(metric=protein stability index, cutoff=2) for item A2L
yes (1)

Hello, I need to know if R16Q has measured protein stability index not below 2. Thanks!
no (0)

Test whether the variant A2K records protein stability index of 2 or higher.
yes (1)

Has L7D a recorded protein stability index greater than or equal to 2?
no (0)

Is protein stability index at least 2? Consider E24I
yes (1)

I'd appreciate it if you could say whether G5C has protein stability index at least equal to 2.
no (0)

# bool: protein stability index of K4T >= 2
yes (1)

Given L7Y , state whether its protein stability index is at least 2.
yes (1)

State whether the measured protein stability index reaches 2, counting equality as reaching it, for K4Y
yes (1)

Determine whether this variant has protein stability index no lower than 2: S21H
no (0)

Given the entry V20G , answer whether its protein stability index meets or surpasses 2.
no (0)

Is it the case that E6A has protein stability index reaching or exceeding 2?
no (0)

Given the entry G5R , answer whether its protein stability index meets or surpasses 2.
no (0)

Can A2N be said to have protein stability index at or above 2?
yes (1)

Quick check, protein stability index >= 2? E14S
yes (1)

Decide: protein stability index of L7K >= 2?
no (0)

Entry I11E : is its protein stability index no less than 2?
yes (1)

Form field: protein stability index at least 2? Entry: E24N
no (0)

Check if protein stability index >= 2 (inclusive). Item: P18V
yes (1)

Please check the record L7N and state if its protein stability index is at or above 2.
no (0)

For this variant, is measured protein stability index 2 or higher? E3P
yes (1)

Does protein stability index meet or surpass 2 for T19K ?
yes (1)

Threshold query (protein stability index >= 2) on K9Q
no (0)

Determine whether measured protein stability index meets or exceeds 2 for S15N
no (0)

Record I22G ; criterion: protein stability index no lower than 2. Met?
no (0)

Can E3I be said to have protein stability index at or above 2?
yes (1)

Given the entry S21W , answer whether its protein stability index meets or surpasses 2.
yes (1)

Kindly determine if protein stability index recorded for F1R is above or exactly 2.
yes (1)

Say whether S21M shows protein stability index of 2 or more.
yes (1)

API: above_or_equal(metric=protein stability index, cutoff=2) for item E24M
yes (1)

Dear colleague, could you confirm whether S10M has protein stability index at or above 2?
yes (1)

For this variant, is measured protein stability index 2 or higher? I11N
yes (1)

Given T19S , state whether its protein stability index is at least 2.
yes (1)

Hi team, for F12V , is the recorded protein stability index at or above 2?
yes (1)

For this variant, is measured protein stability index 2 or higher? M23Q
yes (1)

For this variant, is measured protein stability index 2 or higher? E3V
no (0)

Is protein stability index at least 2? Consider P18Y
yes (1)

I'd appreciate it if you could say whether I11P has protein stability index at least equal to 2.
yes (1)

Please indicate if the recorded protein stability index for T19W meets or exceeds 2.
yes (1)

Reported protein stability index at or above 2? K4W
yes (1)

Could you please find out whether I11D has protein stability index that meets 2 or exceeds it?
yes (1)

Tell me whether protein stability index is at least 2 here: I11F
yes (1)

Would you say S15T shows protein stability index at minimum 2?
yes (1)

Does the reported protein stability index for R8P fall at or above the 2 mark?
no (0)

Given S13Y , state whether its protein stability index is at least 2.
yes (1)

Quick check: does V20R have protein stability index greater than or equal to 2?
no (0)

Would you say S13R shows protein stability index at minimum 2?
yes (1)

Quick check: does F1A have protein stability index greater than or equal to 2?
yes (1)

Answer whether protein stability index of F12A is greater than or equal to 2.
yes (1)

Record K4D ; criterion: protein stability index no lower than 2. Met?
yes (1)

Decide: is the reported value of protein stability index for L7P equal to or greater than 2?
yes (1)

Form field: protein stability index at least 2? Entry: E14L
no (0)

Is reported protein stability index greater than or equal to 2 here: F1G
yes (1)

Hello, I need to know if G5V has measured protein stability index not below 2. Thanks!
no (0)

Could you tell me if the measured protein stability index of M23T reaches 2 or more?
yes (1)

Does T19G have a reported protein stability index of at least 2?
no (0)

Please check the record G5I and state if its protein stability index is at or above 2.
yes (1)

In plain terms: is recorded protein stability index at least 2 for K4Q ?
no (0)

// inclusive: protein stability index at least 2? input: F12H
yes (1)

Say whether F1I shows protein stability index of 2 or more.
yes (1)

Does protein stability index meet or surpass 2 for K4C ?
yes (1)

Provenance of the data: the supplement of paper PMC10567573
